Kindly supply the reported logD values for the records listed here.
assay: physchem; conditions: buffer, pH 7.4
Numbers only.

For every item in the list below, what is its measured logD?
1. O=C(O)CCNC(=O)c1ccc(C(Oc2ccc(-n3cc(C(F)(F)F)cn3)cc2)C2CCC2)cc1 (racemic)
2. CCCC(Oc1ccc(-n2cc(C#N)cn2)cc1)c1ccc(C(=O)NCCC(=O)O)cc1 (racemic)
3. CCCC(Nc1ccc(-n2cnc(C(F)(F)F)c2)cc1)c1ccc(C(=O)NCCC(=O)O)cc1 (racemic)
4. CCC[C@H](Oc1cc(C)c(-n2cc(C(F)(F)F)cn2)c(C)c1)c1ccc(C(=O)NCCC(=O)O)cc1 [PF-06291874]

output:
1. 2.6
2. 1.2
3. 1.3
4. 2.5

====

assay: Apparent permeability across MDCK2 cells; type: ADME, cell-based, Canis lupus familiaris, MDCK-II; details: dog, MDCK
Please go through the items and note down their Papp.
One number for each entry, in ×10⁻⁶ cm/s.

Some solved cases for reference:
input: Give recorded Papp. CCCC(Nc1ccc(-n2cc(C(F)(F)F)cn2)nc1)c1ccc(C(=O)NCCC(=O)O)cc1 (racemic)
output: 4.6

input: Report measured Papp; entry is CCCC(Oc1ccc(-n2cnc(C(F)(F)F)c2)cc1)c1ccc(C(=O)NCCC(=O)O)cc1 (racemic)
output: 2.3

input: Provide Papp value for the following compound: CCCC(Nc1cc(C)c(-n2cc(C(F)(F)F)cn2)c(C)c1)c1ccc(C(=O)NCCC(=O)O)cc1 (racemic)
output: 2.7

input: Give the reported Papp for this compound. CCCC(Nc1ccc(-n2cc(C(F)(F)F)cn2)cc1)c1ccc(C(=O)NCCC(=O)O)cc1 (racemic)
output: 4

input: For the compound CCCC(Oc1ccc(-n2cc(C(F)(F)F)cn2)cc1)c1ccc(C(=O)NCCC(=O)O)cc1 (racemic) , give its measured Papp value.
output: 3.1

input: Supply recorded Papp for CCC[C@H](Oc1cc(C)c(-n2cc(C(F)(F)F)cn2)c(C)c1)c1ccc(C(=O)NCCC(=O)O)cc1 here.
output: 3.6

input: // Input: CCCC(Nc1cnc(-n2cc(C(F)(F)F)cn2)nc1)c1ccc(C(=O)NCCC(=O)O)cc1 (racemic) . Output its Papp only.
output: 0.8

New cases:
input: Output measured Papp for this item: CCCC(Oc1ccc(-n2cc3ccccc3n2)cc1)c1ccc(C(=O)NCCC(=O)O)cc1 (single isomer, unassigned)
output: 2.2

====

assay: Oral bioavailability in Wistar-Han rat at 5 mg/kg; assay type: ADME, organism-based; conditions: in vivo
For each entry below, report its bioavailability value.
Numbers only, in %.

Below: 2 compounds and their reported bioavailability.
input: Return bioavailability (reported value) for this compound: CCCC(Oc1ccc(-n2cc(C(F)(F)F)cn2)cc1)c1ccc(C(=O)NCCC(=O)O)cc1 (single isomer, unassigned)
output: 60

input: In one line, give reported bioavailability of the entry CCC[C@H](c1ccc(C(=O)NCCC(=O)O)cc1)[C@H](c1ccc(Cl)cc1)c1c[nH]c2c(F)cc(C)cc12 .
output: 7

Next compound, please.
input: # return recorded bioavailability for entry CCCC(Oc1ccc(-n2cc3ccccc3n2)cc1)c1ccc(C(=O)NCCC(=O)O)cc1 (single isomer, unassigned)
output: 3

====

assay: Oral bioavailability in Beagle dog at 4 mg/kg; type: ADME, organism-based, Canis lupus familiaris; details: in vivo
READOUT KIND: bioavailability (%)
Answers are plain numbers, in %.

input: Respond only with bioavailability recorded for CCC[C@H](c1ccc(C(=O)NCCC(=O)O)cc1)[C@H](c1ccc(Cl)cc1)c1c[nH]c2c(F)cc(C)cc12 [MK-3577]
output: 30

====

assay: Volume of distribution at steady state in Beagle dog at 0.5 mg/kg, iv and 5 mg/kg, po; assay type: ADME, organism-based, Canis lupus familiaris; settings: in vivo, read-out: Vdss
READOUT KIND: Vd (L/kg)
Answers are plain numbers, in L/kg.

input: Name the recorded Vd of the molecule listed here: CCC[C@H](Oc1cc(C)c(-n2cc(C(F)(F)F)cn2)c(C)c1)c1ccc(C(=O)NCCC(=O)O)cc1
output: 0.31

====

assay: Oral bioavailability in Beagle dog at 5 mg/kg; assay type: ADME, organism-based, Canis lupus familiaris; settings: in vivo
READOUT KIND: bioavailability (%)
One number for each entry, in %.

input: Return reported bioavailability. Input molecule: CCC[C@H](Oc1cc(C)c(-n2cc(C(F)(F)F)cn2)c(C)c1)c1ccc(C(=O)NCCC(=O)O)cc1 [PF-06291874]
output: 100

====

assay: Apparent permeability across human Caco2 cells at pH 7.4; format: ADME, cell-based; settings: Caco-2, pH 7.4
READOUT KIND: Papp (×10⁻⁶ cm/s)
Answers are plain numbers, in ×10⁻⁶ cm/s.

input: Complete the entry with Papp for CCC[C@H](Oc1cc(C)c(-n2cc(C(F)(F)F)cn2)c(C)c1)c1ccc(C(=O)NCCC(=O)O)cc1
output: 8.5

====

Consider the following compounds; for each one, report its logD.
assay: physchem; conditions: buffer, pH 7.4
Answers are plain numbers.

input: Fill in logD for record CCCC(Oc1ccc(-n2cc(F)cn2)cc1)c1ccc(C(=O)NCCC(=O)O)cc1 (racemic)
output: 2

input: Give the reported logD for this compound. CCCC(Nc1cnc(-n2cc(C(F)(F)F)cn2)nc1)c1ccc(C(=O)NCCC(=O)O)cc1 (racemic)
output: 1.3

Report logD for every entry below.
1. CCCC(Nc1cc(C)c(-n2cc(C(F)(F)F)cn2)c(C)c1)c1ccc(C(=O)NCCC(=O)O)cc1 (racemic)
2. CC(C)CC(Oc1ccc(-n2cc(C(F)(F)F)cn2)cc1)c1ccc(C(=O)NCCC(=O)O)cc1 (racemic)
3. CCCC(Nc1ccc(-n2cc(C(F)(F)F)cn2)nc1)c1ccc(C(=O)NCCC(=O)O)cc1 (racemic)
4. CCCC(Oc1ccc(-n2cc(Cl)cn2)cc1)c1ccc(C(=O)NCCC(=O)O)cc1 (racemic)

output:
[2.2, 3.2, 2.1, 2.6]

State the recorded logD for every item in the following list.
1. CCCC(Oc1ccc(-n2cc(C(F)(F)F)cn2)nc1)c1ccc(C(=O)NCCC(=O)O)cc1 (racemic)
2. CCCC(Oc1ccc(-n2cc(C(F)(F)F)cn2)c(C)c1)c1ccc(C(=O)NCCC(=O)O)cc1 (racemic)
3. CCCC(Nc1ccc(-n2cc(C(F)(F)F)cn2)cn1)c1ccc(C(=O)NCCC(=O)O)cc1 (racemic)
4. CCCC(Oc1ccc(-n2cc3c(n2)CCCC3)cc1)c1ccc(C(=O)NCCC(=O)O)cc1 (racemic)
5. CCCC(Oc1cnc(-n2cc(C(F)(F)F)cn2)nc1)c1ccc(C(=O)NCCC(=O)O)cc1 (racemic)
6. CCCC(Oc1ccc(-n2cc(C(F)(F)F)cn2)cc1)c1ccc(C(=O)NCCC(=O)O)cc1 (racemic)

output:
1. 2.6
2. 2.6
3. 1.3
4. 2.7
5. 1.5
6. 2.4

====

test: Volume of distribution at steady state in Wistar-Han rat at 1 mg/kg, iv and 50 mg/kg, po; assay type: ADME, organism-based; details: in vivo, read-out: Vdss
READOUT KIND: Vd (L/kg)
Answers are plain numbers, in L/kg.

input: Report measured Vd; entry is CCC[C@H](Oc1cc(C)c(-n2cc(C(F)(F)F)cn2)c(C)c1)c1ccc(C(=O)NCCC(=O)O)cc1 [PF-06291874]
output: 0.4

====

Kindly state solubility kinetic for each of the entries shown.
experiment: Aqueous kinetic solubility of the compound at pH 6.5; assay type: physicochemical; conditions: read-out: Kinetic_solubility
Numbers only, in µM.

As a guide, the following entries are already answered.
input: Give recorded solubility kinetic. CCCC(Nc1ccc(-n2cc(C(F)(F)F)cn2)cc1)c1ccc(C(=O)NCCC(=O)O)cc1 (racemic)
output: 350

input: Please look at this molecule and report its solubility kinetic: CCCC(Oc1ccc(-n2cc(C(F)(F)F)cn2)cc1)c1ccc(C(=O)NCCC(=O)O)cc1 (racemic)
output: 400

input: Provide only the value of recorded solubility kinetic for CCCC(Oc1ccc(-n2cc(Cl)cn2)cc1)c1ccc(C(=O)NCCC(=O)O)cc1 (racemic)
output: 70

input: Dear colleague, please send me the reported solubility kinetic for CCC[C@H](c1ccc(C(=O)NCCC(=O)O)cc1)[C@H](c1ccc(Cl)cc1)c1c[nH]c2c(F)cc(C)cc12 [MK-3577] when you can.
output: 23

input: Fill in reported solubility kinetic for this entry: CCCC(Nc1ccc(-n2cnc(C(F)(F)F)c2)cc1)c1ccc(C(=O)NCCC(=O)O)cc1 (racemic)
output: 350

Next up:
input: Name the recorded solubility kinetic of the item CCCC(Nc1cnc(-n2cc(C(F)(F)F)cn2)nc1)c1ccc(C(=O)NCCC(=O)O)cc1 (racemic) in your answer.
output: 380

====

assay: physchem; details: buffer, pH 7.4
With a cut-off of 2, any logD strictly below it is called Condition met; any logD meeting it or above is called Condition not met.

input: Would you kindly verify if logD of CCCC(Oc1ccc(-n2cc(C)cn2)cc1)c1ccc(C(=O)NCCC(=O)O)cc1 (racemic) is strictly less than 2?
output: Condition not met

input: Take the compound O=C(O)CCNC(=O)c1ccc(C(Oc2ccc(-n3cc(C(F)(F)F)cn3)cc2)C2CCCC2)cc1 (racemic) and say whether its logD is less than 2.
output: Condition not met

input: Regarding CC(C)C(Oc1ccc(-n2cc(C(F)(F)F)cn2)cc1)c1ccc(C(=O)NCCC(=O)O)cc1 (racemic) , kindly confirm whether its logD is beneath 2.
output: Condition not met

Next:
input: Take the compound O=C(O)CCNC(=O)c1ccc(C(Oc2ccc(-n3cc(C(F)(F)F)cn3)cc2)C2CC2)cc1 (racemic) and say whether its logD is less than 2.
output: Condition met

input: Criterion: logD strictly below 2. Is it met by CCCC(Oc1ccc(-n2cccn2)cc1)c1ccc(C(=O)NCCC(=O)O)cc1 (racemic) ?
output: Condition met
